- SUBJECT OF TEST: PDE2 (Homo sapiens)
- Sequence (O00408 whole entry): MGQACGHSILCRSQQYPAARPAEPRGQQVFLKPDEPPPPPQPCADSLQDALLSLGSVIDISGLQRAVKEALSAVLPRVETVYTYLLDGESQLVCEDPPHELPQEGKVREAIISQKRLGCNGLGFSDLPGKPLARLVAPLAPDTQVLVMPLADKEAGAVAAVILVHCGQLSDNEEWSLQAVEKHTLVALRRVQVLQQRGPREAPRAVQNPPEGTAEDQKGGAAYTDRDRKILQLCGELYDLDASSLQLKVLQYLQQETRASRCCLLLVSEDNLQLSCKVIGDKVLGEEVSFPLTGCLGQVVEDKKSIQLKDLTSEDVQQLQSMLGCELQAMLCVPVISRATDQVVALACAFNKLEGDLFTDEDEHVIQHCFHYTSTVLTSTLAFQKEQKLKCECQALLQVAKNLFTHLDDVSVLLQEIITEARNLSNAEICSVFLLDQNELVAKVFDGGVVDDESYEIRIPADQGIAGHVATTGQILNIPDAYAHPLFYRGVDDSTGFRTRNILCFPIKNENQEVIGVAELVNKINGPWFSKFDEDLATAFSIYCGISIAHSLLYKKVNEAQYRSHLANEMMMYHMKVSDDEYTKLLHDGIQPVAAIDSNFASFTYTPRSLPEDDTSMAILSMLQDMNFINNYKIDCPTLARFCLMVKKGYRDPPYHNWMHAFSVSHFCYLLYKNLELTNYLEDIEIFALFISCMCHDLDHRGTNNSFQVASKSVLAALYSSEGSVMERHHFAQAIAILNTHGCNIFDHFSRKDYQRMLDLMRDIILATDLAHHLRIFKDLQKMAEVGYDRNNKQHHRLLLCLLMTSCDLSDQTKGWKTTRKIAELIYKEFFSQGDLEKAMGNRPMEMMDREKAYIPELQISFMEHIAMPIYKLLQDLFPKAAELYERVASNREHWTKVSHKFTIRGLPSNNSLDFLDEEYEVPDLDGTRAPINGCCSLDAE
- TEST: cGMP-stimulated PDE inhibition activity
pIC50: −log10 of the molar value.

CHEMICAL STRUCTURE: CC1=C(CC(=O)O)c2cc(F)ccc2/C1=C\c1ccc(S(C)(=O)=O)cc1
pIC50: 3.52
